Ref: the supplement of paper PMC6555819

- Test system: PPARg:RXRa 90nM:30nM, anti-RXR (NR concentration 90 nM, RXRa partner concentration 30 nM)
- measurement_description: PBM binding z-score (relative to random genomic background probes); higher = stronger binding; sequences stand for … in GC…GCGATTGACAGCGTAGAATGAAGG
PBM binding z-score of 2 or higher: true (1). Under 2: false (0).

Some solved cases for reference:
GCGACTGGGGCATCAGCAGATTACCATAACTTAA	false (0)
AGAACGAGGGCAATGAGTTGATAGCGCGGGTGGC	false (0)
ATCTCTAGATAAAAGTTCAGTGAATCCCGAGGAT	true (1)

As a next step, examine the sequence that follows.
Has AGAATGAGGTTAAGCTCAGGGAAACAGAATACAT a recorded PBM binding z-score greater than or equal to 2?
false (0)

###

- System: LXRb:RXRa (NR concentration 270 nM, RXRa partner concentration 90 nM)
- measurement_description: PBM binding z-score (relative to random genomic background probes); higher = stronger binding; sequences stand for … in GC…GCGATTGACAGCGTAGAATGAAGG
PBM binding z-score of 0.3 or higher: 1 (yes). Under 0.3: 0 (no).

TAGCCTAGGTCATTAGGCCAGTATAGTACGCATC	1 (yes)
TCATATAGATAATACAGGTGAAAGTCGGCATCTA	1 (yes)
ATACCAAGGTGATCGTGAGGTCCTTGATACTAAC	0 (no)

Has GATACAGGGCCAAGGCCAGAGTACGCGTATTGAT a recorded PBM binding z-score greater than or equal to 0.3?
0 (no)

Has CTACCAAGGTGAACAAGGTCATTGATTACTATTC a recorded PBM binding z-score greater than or equal to 0.3?
1 (yes)

Has TCTGCTAGGTCAAAGATGGTCAGCTAATCTGCTA a recorded PBM binding z-score greater than or equal to 0.3?
1 (yes)

Has CGAACGAGGGCATGAGTTGATAGCGAATGCCGAT a recorded PBM binding z-score greater than or equal to 0.3?
0 (no)

Has CCTAGTTGGTCAGGAGCTCACACACCGGATATGA a recorded PBM binding z-score greater than or equal to 0.3?
0 (no)

Has CCGACTGGGGCAAAGGTTACCATCCTCAGTACGA a recorded PBM binding z-score greater than or equal to 0.3?
1 (yes)

###

Kindly state PBM binding z-score for each of the entries shown.
- System: LXRb:RXRa (NR concentration 270 nM, RXRa partner concentration 90 nM)
- measurement_description: PBM binding z-score (relative to random genomic background probes); higher = stronger binding; sequences stand for … in GC…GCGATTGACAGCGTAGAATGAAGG

ACAGACAGATGAGTGAAGGTAACTCAGCTGGACG	-0.328
GCTGCTAGGTCAACTCATGGTCAGCTAAAGCTCG	2.29

Parameters: items (list). Returns: PBM binding z-score for each item.
1. GCTAGTTGGTCAGTAAAAGGTAACACACCGGTCG
2. GGAACGAGGGCATTCGAGTTGATAACATGGCGAT
3. CGAACTCGGTCATTGACAGGACAGTGAATAGTAA
4. TCTCGGAGGGCACGAAAGGTCAGAGCTCGACATC
5. CCTAGTTCGTCAGGAGGTCACACACCGGATATGA

1: 0.107; 2: 0.415; 3: 0.401; 4: 4.29; 5: 3.64

###

Kindly state PBM binding z-score for each of the entries shown.
- Test system: PXR homodimer (NR concentration 270 nM)
- measurement_description: PBM binding z-score (relative to random genomic background probes); higher = stronger binding; sequences stand for … in GC…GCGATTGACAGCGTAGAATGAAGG
Numbers only.

TGTCAAAGTTCAAAGGTAACGGAAGTATCCACAC	3.74
ACAATGAGGTTATACGTAGATCAGGGAAGAAAGT	0.655
CGTCCAAGGTGAAAGGTCAGTGAAGAGATGACGG	0.474
CCTACTGGGCCATCAGGTAATTGATATCAACGTT	-0.167

Parameters: items (list). Returns: PBM binding z-score for each item.
1. ACATGTAGGTTATCGGGTCATTCAGTTTGCGCAT
2. TCTCGGAGGACACGTAGGTCAGAGCTTTCCAGAG
3. CGTCCAAGGACATAGGAGGTCAGTGAAGACAGAT
4. TCTTGTAGATCAATGGTTAAGAAAGCCGAAGCCT
5. ATCTCTAGGGAAAGATAGTTCAGTGAATGCAAAT
6. GCTTGTATATCAAGGTTAAGAAAGACTAAGCTAA

[6.61, -0.00599, 0.81, -0.283, 0.536, -0.223]

Parameters: items (list). Returns: PBM binding z-score for each item.
1. GCATATAGGTAATACAACGTGAAAGTCCGATTGT
2. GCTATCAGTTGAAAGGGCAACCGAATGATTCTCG

1: -0.12; 2: -0.393

###

Kindly state PBM binding z-score for each of the entries shown.
- System: PPARg:RXRa DBDmut IVT, anti-RXR (DBD mutation: RXRa K156A/R161A, NR concentration 270 nM, RXRa partner concentration 90 nM)
- measurement_description: PBM binding z-score (relative to random genomic background probes); higher = stronger binding; sequences stand for … in GC…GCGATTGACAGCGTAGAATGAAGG
Give bare numbers.

CCTGCTGGGCCAAAGGTCATTGATTCCAATGCTC	1.56

Parameters: items (list). Returns: PBM binding z-score for each item.
1. ACTAGCAGGACAAGGGTCACTCAAGATTAGTCCG
2. TCTTGTAGATCAATAGCGGTTAAGAAAGTGCGCT
3. GCTATTAGCTGAAAGGGCAACCGAATGATTCTCG
4. CCGACTGGGGCAGAAAGGCTACCATACCATCCGG
5. GCGACTGGGGCTTCAGCAGGTTACCATAACTTAA
6. ACTATTAGTAGAGACGAGGGCAACCGATAGGTTG

1. 0.93
2. 1.73
3. 0.31
4. 0.897
5. 0.693
6. -0.0666

Parameters: items (list). Returns: PBM binding z-score for each item.
1. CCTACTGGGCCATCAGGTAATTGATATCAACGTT
2. ATCTGTAGGTAAAGTTCAGTGAAAGATCGATAGA
3. CCGACTGGGGCAAGGTAACCATAACGCACAGCCA

4.07
1.48
2.79

Parameters: items (list). Returns: PBM binding z-score for each item.
1. TTTCGGAGGACACGAAGGTCAGAGCTTTCCAGAG
2. TTACCAAGGTGAAAGGTCGTAGATGCACGCCTTG
3. TCGAGTAGGTTAGTCGGGACATTCAGCCAACATA
4. TCATATAGGTAATACAGGTGAAACTCGGCATCTA
5. GATACAGGGTCAAGGCCAGAGAACGCGTATTGAT
6. ACTAACAGGCCAAGTTTGGGTCACTCAAACAAAG

[0.209, 2.23, 1.85, 4.14, 2.63, 0.131]

###

- System: PPARg DBDmut IVT, anti-PPARg (DBD mutation: PPARg1 K132A/R137A, NR concentration 270 nM)
- measurement_description: PBM binding z-score (relative to random genomic background probes); higher = stronger binding; sequences stand for … in GC…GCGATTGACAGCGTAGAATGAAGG
Kindly state PBM binding z-score for each of the entries shown.

AGTCAAAGTTCAGGACGAGGTAAGGTAAAGCACG	-0.0383
TCAAGTAGGTTAGGGGCATTCAGAATGGCGTCGA	0.234
CGTCAAAGTTCACGGTAACGTAACAGAAAGCAGC	0.91
ATATGCAGGTTAGCTGGGGTCATTCAGACTAGGC	1.03
ACTAGTTGGCCAGCTGAGGTCACACACAATTCGG	0.0549

Parameters: items (list). Returns: PBM binding z-score for each item.
1. ATCTCAAGGTAACAAGTTCAGTGAAAGAGAGGAC
2. AGTCAAAGTTCACAAGGTAACGTAAGATTCAGCT
3. GCAGACAGTTGAAACGCAGGTAACTCAGGGTGGC
4. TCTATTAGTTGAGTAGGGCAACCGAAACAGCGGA
5. CGGACGAGGGCATGAGTTGATAGCAAATGCCGAT
6. CAAACTAGGACACCGGAAGGTCAAAGTCCGCATG
7. TCGTGTAGGTTAGTCGGGGCATTCAGCCAACATA

[1.1, 0.956, -0.586, 0.883, -1.58, 2.63, -0.153]

Parameters: items (list). Returns: PBM binding z-score for each item.
1. ATCTCTAGGTAAGACTCAGTTCAGTGAGGAACGC
2. CTCGAAAGCTCGGTTGAGGTGAGTATACGGATAA

1. 0.604
2. -0.607

Parameters: items (list). Returns: PBM binding z-score for each item.
1. GGAACGAGGGCATTCGAGGTGATAGCATGGCGAT
2. TCTCGGAGGACACGAAGGTCATAGCTTTCCAGAG
3. ATCTCTAGGTAAGACTCAGTTCTGTGAAGAACGC
4. ACTATTAGTTGAGACGAGGGCAACCGGTAGGTTG
5. TAGCCTAGGTCATGCGGGCCAGAATAGTGTCGGC
6. ATATGTAGGTTCGCTGGGGTCATTCAGACTAGGC

-0.391
-1.04
0.855
-0.0704
-0.646
1.5
